Listed below: switch fluorescence ratio values for each entry.
- Test system: ATP;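 also: ATP exposure 15 min at 22 °C before imaging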
- assay_explanation: switch fluorescence ratio, 500 uM ATP over buffer (Cy3 cluster intensity, sum of 5 cycles each) (fold (ratio)); higher = stronger signal-on switching upon ATP binding; sequences stand for … in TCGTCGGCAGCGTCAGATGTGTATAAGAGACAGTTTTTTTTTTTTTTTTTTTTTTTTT…TC
- measurement_setup: aptamer strand: ATP DNA aptamer (quencher-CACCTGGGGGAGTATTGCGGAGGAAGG + anchor), 100 nM annealed; ATP concentration: 500 uM
Returns: the value as a bare number; no unit string appended.

Sample answers from the record:
CGACCAGATA ... 1.08
TTGCGGGGGT ... 1
GGCCAAGGAT ... 1.01
TTTGGGTGCA ... 0.987
GGTGAGCTAG ... 0.987
CGTAAGACGT ... 1.03
GGATAAAATT ... 0.996
AATCTCTGGG ... 0.992
ATATTCTTGG ... 0.985
ATTGGACCAT ... 0.976

Query :: Need switch fluorescence ratio of TACCAATGGA , thanks.
Result :: 1.02

Query :: Any idea what switch fluorescence ratio was measured for AATGGGGGAT ?
Result :: 0.988

Query :: Fill in the blank: the reported switch fluorescence ratio of TGGGTTTGCT is ____.
Result :: 1

Query :: Request the reported switch fluorescence ratio associated with ATAGGATCAT
Result :: 0.975

Query :: Entry TATTAGGTGG has what switch fluorescence ratio?
Result :: 1.1

Query :: What does the data say about its switch fluorescence ratio? Entry: GGGAAATCAT
Result :: 0.997

Query :: So what does the record say about switch fluorescence ratio for AGCAACCCCG ?
Result :: 1.22

Query :: Item under review: GGGATTCGGG . Reported switch fluorescence ratio?
Result :: 1.02

Query :: What value of switch fluorescence ratio has been recorded for this entry: CACTAGGGGA
Result :: 1

###

- Test system: ATP;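 also: ATP exposure 15 min at 22 °C before imaging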
- assay_explanation: switch fluorescence ratio, 500 uM ATP over buffer (Cy3 cluster intensity, sum of 5 cycles each) (fold (ratio)); higher = stronger signal-on switching upon ATP binding; sequences stand for … in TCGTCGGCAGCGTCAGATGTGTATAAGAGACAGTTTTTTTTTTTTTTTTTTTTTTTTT…TC
- measurement_setup: aptamer strand: ATP DNA aptamer (quencher-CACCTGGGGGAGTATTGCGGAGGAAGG + anchor), 100 nM annealed; ATP concentration: 500 uM
Each entry gets not fulfilled if its switch fluorescence ratio stays under 1, and fulfilled if its switch fluorescence ratio is 1 or above.

Use these answered entries as a reference point.
TCCAAAGGGC ... fulfilled
CAGGACCCGG ... fulfilled

Query :: Could you verify whether the entry ACGTGTATTT shows switch fluorescence ratio of no less than 1?
Result :: fulfilled

Query :: Check this sequence for switch fluorescence ratio at or above 1: CGGGATGTCA
Result :: not fulfilled

Query :: switch fluorescence ratio >= 1 for CAGATAGGTG ?
Result :: fulfilled

Query :: # check: switch fluorescence ratio of TTTCCAGTTC is greater than or equal to 1
Result :: fulfilled

Query :: Is the recorded value of switch fluorescence ratio equal to or greater than 1 for this sequence? GGGGCAGCCA
Result :: fulfilled

Query :: hey, is switch fluorescence ratio for this one >= 1? TATGATGGAA
Result :: not fulfilled

Query :: Item TTCTCGCCAA with switch fluorescence ratio of 1 or above?
Result :: fulfilled

Query :: Please indicate if the recorded switch fluorescence ratio for TGGGAAAACT meets or exceeds 1.
Result :: fulfilled

Query :: Threshold query (switch fluorescence ratio >= 1) on TCCGGGAAAT
Result :: fulfilled

Query :: Given CGGTTAAGGC , state whether its switch fluorescence ratio is at least 1.
Result :: fulfilled

###

- Tested on: ATP;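 also: ATP exposure 15 min at 22 °C before imaging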
- assay_explanation: switch fluorescence ratio, 500 uM ATP over buffer (Cy3 cluster intensity, sum of 5 cycles each) (fold (ratio)); higher = stronger signal-on switching upon ATP binding; sequences stand for … in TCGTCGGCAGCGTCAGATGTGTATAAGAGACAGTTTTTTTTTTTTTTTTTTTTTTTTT…TC
- measurement_setup: aptamer strand: ATP DNA aptamer (quencher-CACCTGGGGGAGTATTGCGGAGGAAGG + anchor), 100 nM annealed; ATP concentration: 500 uM
Parameter: switch fluorescence ratio. Scope: all listed entries.
// return just the number, without any unit appended

These recorded examples may help you get a feel for the data.
TTTAGCTAGT ... 1.01
AACGTGAGGG ... 0.989
TATAAATTTG ... 1.01
CGGTAGAGGG ... 0.982
GGCCGTTTGG ... 0.981
TGGGGCTATA ... 0.995

Next, consider the following sequence.
Query :: Which switch fluorescence ratio value belongs to GATTGGGTGG ?
Result :: 1

###

- System: ATP;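 also: ATP exposure 15 min at 22 °C before imaging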
- assay_explanation: switch fluorescence ratio, 500 uM ATP over buffer (Cy3 cluster intensity, sum of 5 cycles each) (fold (ratio)); higher = stronger signal-on switching upon ATP binding; sequences stand for … in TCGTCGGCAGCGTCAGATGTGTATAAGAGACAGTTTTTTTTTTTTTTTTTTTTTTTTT…TC
- measurement_setup: aptamer strand: ATP DNA aptamer (quencher-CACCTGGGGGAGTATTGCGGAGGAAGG + anchor), 100 nM annealed; ATP concentration: 500 uM
readout_type: switch fluorescence ratio
The response must contain the number and no unit.

AGTTCGTCGT ... 0.983

Query :: Need switch fluorescence ratio of ATGGTATGCT , thanks.
Result :: 0.992

Query :: What does the data say about its switch fluorescence ratio? Entry: AGGGGATTGC
Result :: 0.988

Query :: Query (sequence): TCTTGGCCAT ; field requested: switch fluorescence ratio
Result :: 1.24

Query :: Form field: reported switch fluorescence ratio of AGGTACGCTC
Result :: 0.993

###

- System: ATP;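 also: ATP exposure 15 min at 22 °C before imaging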
- assay_explanation: switch fluorescence ratio, 500 uM ATP over buffer (Cy3 cluster intensity, sum of 5 cycles each) (fold (ratio)); higher = stronger signal-on switching upon ATP binding; sequences stand for … in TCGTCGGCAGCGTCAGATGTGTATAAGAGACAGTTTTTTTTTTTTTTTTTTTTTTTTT…TC
- measurement_setup: aptamer strand: ATP DNA aptamer (quencher-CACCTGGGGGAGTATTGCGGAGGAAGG + anchor), 100 nM annealed; ATP concentration: 500 uM
Label rule, in plain words: switch fluorescence ratio of 1 and up is yes, under 1 is no.

The following sequences have reported results that may help.
GATTTTTGGA ... no
CGTTATATTC ... yes

Query :: Assess whether reported switch fluorescence ratio for TTGGCAGTTA sits at 1 or higher.
Result :: yes

Query :: Is the recorded value of switch fluorescence ratio equal to or greater than 1 for this sequence? TTCCCGTTGA
Result :: yes

Query :: switch fluorescence ratio >= 1 for CTTCTAGTCC ?
Result :: yes

Query :: Is switch fluorescence ratio for CAGGGGGATA at or above 1?
Result :: yes

Query :: Dear colleague, could you confirm whether ACTCAATTTT has switch fluorescence ratio at or above 1?
Result :: yes

Query :: For this sequence, is measured switch fluorescence ratio 1 or higher? GTGGGGAGCT
Result :: yes

Query :: Is it the case that ATTCACCGCG has switch fluorescence ratio reaching or exceeding 1?
Result :: yes

Query :: Textbook exercise: given the entry TAAAGAACGT , state whether its switch fluorescence ratio is greater than or equal to 1.
Result :: no

###

- Tested on: ATP;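 also: ATP exposure 15 min at 22 °C before imaging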
- assay_explanation: switch fluorescence ratio, 500 uM ATP over buffer (Cy3 cluster intensity, sum of 5 cycles each) (fold (ratio)); higher = stronger signal-on switching upon ATP binding; sequences stand for … in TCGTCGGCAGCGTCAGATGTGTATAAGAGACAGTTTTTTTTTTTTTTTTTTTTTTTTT…TC
- measurement_setup: aptamer strand: ATP DNA aptamer (quencher-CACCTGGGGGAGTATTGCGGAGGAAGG + anchor), 100 nM annealed; ATP concentration: 500 uM
Measured switch fluorescence ratio values are reported for all entries that follow.
// no unit string in output, number only

In the examples that follow, each entry is paired with its recorded switch fluorescence ratio.
TGGGCGTAG ... 0.993
TCTTGGTCGG ... 1.03

Query :: Reported switch fluorescence ratio for GGGCGAAATG : what is it?
Result :: 1.32

Query :: I am curious: what switch fluorescence ratio value has been reported for TTCAAGGGTG ?
Result :: 1.11

Query :: What does the record list as switch fluorescence ratio for ATAATTTTAC ?
Result :: 1.07

Query :: Entry under review: CCGGGATGGG . Reported switch fluorescence ratio?
Result :: 1.03

Query :: What does the record list as switch fluorescence ratio for GGTGCTAGAA ?
Result :: 0.979

Query :: Endpoint output: switch fluorescence ratio of CCGATGGGGG . Value?
Result :: 1.01

Query :: # switch fluorescence ratio lookup, item GTATAAGAGG
Result :: 0.991

Query :: I am curious: what switch fluorescence ratio value has been reported for GGGGACGTAT ?
Result :: 1.01

Query :: Requested field: switch fluorescence ratio. Item: GTCAGTGCTA
Result :: 1.02
